# System: 5-HT2AR S159A-mutated receptor
# procedure_text: Bias factor (βarr2 vs miniGαq recruitment), intrinsic relative activity approach, S159A mutated 5-HT2AR
# Assay type: cell-based, human
# condition_notes: 5-HT2A-S159A; referenced with 5-HT; from the combined EC50 and Emax values
Please enter 1 (yes) where Alternative β-factor is greater than or equal to 0.2, and 0 (no) where it is lower.

Could you verify whether the entry COc1cccc(CNCCc2cc(OC)c(Br)cc2OC)c1 shows Alternative β-factor of no less than 0.2?
0 (no)

Entry COc1cc(CCNC2COc3ccccc32)c(OC)cc1C#N (racemic) [(±)-6f] : is its Alternative β-factor no less than 0.2?
1 (yes)

Alternative β-factor >= 0.2 for COc1cc(CCNCc2ccccc2F)c(OC)cc1C#N ?
1 (yes)

Quick check: does COc1cc(CCNCc2cccc(O)c2)c(OC)cc1Br have Alternative β-factor greater than or equal to 0.2?
0 (no)

Dear colleague, could you confirm whether COc1cc(CCNCc2cccc(O)c2)c(OC)cc1C#N has Alternative β-factor at or above 0.2?
1 (yes)

* * *

# target_system: 5-HT2AR S159A-mutated receptor (Homo sapiens, UniProt P28223, S159A)
# Construct: expressed in transfected cells; host or cells: HEK 293T (transient transfection); mutant made by site-directed mutagenesis of 5-HT2AR-LgBiT
# procedure_text: cell-based
# Type: cell-based
# Sequence (P28223 whole entry S159A): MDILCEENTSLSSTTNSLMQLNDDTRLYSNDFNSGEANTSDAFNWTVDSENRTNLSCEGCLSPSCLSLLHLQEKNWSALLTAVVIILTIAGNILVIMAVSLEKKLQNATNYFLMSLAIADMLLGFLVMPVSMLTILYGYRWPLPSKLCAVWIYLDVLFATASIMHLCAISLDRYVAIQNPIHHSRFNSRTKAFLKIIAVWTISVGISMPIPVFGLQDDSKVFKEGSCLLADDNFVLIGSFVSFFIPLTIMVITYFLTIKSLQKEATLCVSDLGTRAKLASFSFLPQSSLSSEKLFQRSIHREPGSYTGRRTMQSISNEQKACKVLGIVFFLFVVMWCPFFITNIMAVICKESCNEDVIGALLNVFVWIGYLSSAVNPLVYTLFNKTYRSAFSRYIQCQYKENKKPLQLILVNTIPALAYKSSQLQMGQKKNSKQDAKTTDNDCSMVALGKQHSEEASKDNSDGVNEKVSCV
Can you tell me EC50 for the items I'm about to list?
# output: number + unit

Value of measured EC50 for the entry COc1cc(CCNCc2ccccc2F)c(OC)cc1C#N [6c] : 899 nM

Reported EC50 ( COc1cccc(CNCCc2cc(OC)c(Br)cc2OC)c1 [4b] ) = 118 nM

* * *

# target_system: 5-HT2AR S159A-mutated receptor (Homo sapiens, UniProt P28223, S159A)
# Construct: expressed in transfected cells; host or cells: HEK 293T (transient transfection); mutant made by site-directed mutagenesis of 5-HT2AR-LgBiT
# procedure_text: cell-based
# Assay type: cell-based
# Sequence (P28223 whole entry S159A): as above
# Sequence (P32121 whole entry partner): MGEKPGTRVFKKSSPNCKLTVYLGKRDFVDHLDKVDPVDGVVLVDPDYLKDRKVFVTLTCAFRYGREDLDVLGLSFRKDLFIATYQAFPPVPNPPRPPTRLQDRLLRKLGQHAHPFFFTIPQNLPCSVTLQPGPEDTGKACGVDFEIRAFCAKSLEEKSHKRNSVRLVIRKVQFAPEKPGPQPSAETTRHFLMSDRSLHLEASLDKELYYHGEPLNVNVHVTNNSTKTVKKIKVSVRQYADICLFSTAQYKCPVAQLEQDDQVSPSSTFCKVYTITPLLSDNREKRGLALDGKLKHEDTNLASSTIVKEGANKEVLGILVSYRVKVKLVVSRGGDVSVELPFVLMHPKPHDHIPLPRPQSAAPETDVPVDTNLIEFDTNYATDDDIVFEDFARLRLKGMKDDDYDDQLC
outcome_measure: Reduction of agonist potency at 5-HT2AR S159A compared to WT, βarr2 recruitment assay (fold)
// units = fold; emit number, no label

Measured Reduction of agonist potency at 5-HT2AR S159A compared to WT, βarr2 recruitment assay, COc1cc(CCNCc2ccccc2F)c(OC)cc1C#N : 12

Documented Reduction of agonist potency at 5-HT2AR S159A compared to WT, βarr2 recruitment assay of COc1cccc(CNCCc2cc(OC)c(Br)cc2OC)c1 : 7

* * *

# target_system: 5-HT2AR (Homo sapiens)
# Construct: expressed in transfected cells; host or cells: HEK 293T (transient transfection)
# procedure_text: cell-based
# Type: cell-based
# condition_notes: read-out: miniGαq EC50 (nM) [CI]
# Sequence (P28223 whole entry): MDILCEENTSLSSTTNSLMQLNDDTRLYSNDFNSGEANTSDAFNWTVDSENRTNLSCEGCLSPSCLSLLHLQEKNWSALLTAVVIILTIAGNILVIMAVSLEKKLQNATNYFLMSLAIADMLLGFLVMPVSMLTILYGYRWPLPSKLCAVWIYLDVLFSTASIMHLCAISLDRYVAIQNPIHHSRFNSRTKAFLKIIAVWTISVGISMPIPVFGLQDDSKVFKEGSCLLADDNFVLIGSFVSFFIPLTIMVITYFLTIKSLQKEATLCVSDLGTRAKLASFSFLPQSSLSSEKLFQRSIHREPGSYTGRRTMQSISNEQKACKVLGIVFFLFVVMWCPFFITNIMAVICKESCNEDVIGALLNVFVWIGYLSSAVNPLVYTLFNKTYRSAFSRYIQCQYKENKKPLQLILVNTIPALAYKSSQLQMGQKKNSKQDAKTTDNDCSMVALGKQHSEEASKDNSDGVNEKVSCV
outcome_measure: EC50 (nM)
Please reply with the bare figure in nM and do not write the unit itself.

Here COc1cc(CCNC2COc3ccccc32)c(OC)cc1Br (racemic) [(±)-4c] was tested on 5-HT2AR (Homo sapiens), and its EC50 came to 23

* * *

Kindly state β-arr2 Emax (%) [CI] for each of the entries shown.
# target_system: 5-HT2AR (Homo sapiens, UniProt P28223)
# Construct: expressed in transfected cells; host or cells: HEK 293T (transient transfection)
# procedure_text: cell-based
# Assay type: cell-based
# Sequence (P32121 whole entry): as the sequence (P32121 whole entry partner) above
# Sequence (P28223 whole entry): as the sequence (P28223 whole entry) above
Please format your answer as a value with the unit trailing.

Entry CCN(CC)C(=O)[C@@H]1C=C2c3cccc4[nH]cc(c34)C[C@H]2N(C)C1 [LSD, lysergic acid diethylamide, reference compound] ; assay system 5-HT2AR (Homo sapiens, UniProt P28223); β-arr2 Emax (%) [CI] recorded at 90.7%

Item COc1cccc(CNCCc2cc(OC)c(Br)cc2OC)c1 [4b] ; assay system 5-HT2AR (Homo sapiens, UniProt P28223); β-arr2 Emax (%) [CI] reported as 100%

Measured β-arr2 Emax (%) [CI] for this entry COc1cc(CCNC2COc3ccccc32)c(OC)cc1Br (racemic) [(±)-4c] on 5-HT2AR (Homo sapiens, UniProt P28223): 85.5%

# β-arr2 Emax (%) [CI] measured on 5-HT2AR (Homo sapiens, UniProt P28223) for item COc1cc(CCNC2CCOc3ccccc32)c(OC)cc1Br (racemic) [(±)-4d] = 108%

Tested on 5-HT2AR (Homo sapiens, UniProt P28223), the item COc1cc(CCNCc2ccccc2F)c(OC)cc1C#N [6c] showed β-arr2 Emax (%) [CI] equal to 105%

// returns β-arr2 Emax (%) [CI] for COc1cc(CCNCc2cccc(O)c2)c(OC)cc1C#N [6e] with 5-HT2AR (Homo sapiens, UniProt P28223); value = 97.5%

# lookup: COc1cc(CCNC2COc3ccccc32)c(OC)cc1C#N (racemic) [(±)-6f] on 5-HT2AR (Homo sapiens, UniProt P28223), β-arr2 Emax (%) [CI] = 76.0%

Result for COc1cc(CCNCc2cccc(O)c2)c(OC)cc1Br [4a] , tested on 5-HT2AR (Homo sapiens, UniProt P28223), β-arr2 Emax (%) [CI]: 98.9%

Result for COc1cc(CCNCc2cccc3c2OCO3)c(OC)cc1C#N [6d] , tested on 5-HT2AR (Homo sapiens, UniProt P28223), β-arr2 Emax (%) [CI]: 106%

Test item COc1cc(CCNCc2ccccc2OC)c(OC)cc1C#N [6b] ; 5-HT2AR (Homo sapiens, UniProt P28223); reported β-arr2 Emax (%) [CI] was 148%

* * *

What EC50 was measured for each of the following?
# target_system: 5-HT2AR S159A-mutated receptor (Homo sapiens, UniProt P28223, S159A)
# Construct: expressed in transfected cells; host or cells: HEK 293T (transient transfection); mutant made by site-directed mutagenesis of 5-HT2AR-LgBiT
# procedure_text: cell-based
# Assay type: cell-based
# condition_notes: read-out: miniGαq EC50 (nM) [CI]
Report the figure in nM without appending any unit label.

The compound identified as COc1cccc(CNCCc2cc(OC)c(Br)cc2OC)c1 registered its EC50 at 112

Reported EC50 for COc1cc(CCNCc2cccc(O)c2)c(OC)cc1C#N was 2060

# EC50 (compound: COc1cc(CCNC2COc3ccccc32)c(OC)cc1C#N (racemic) [(±)-6f] ) is 1650

The reported EC50 of the compound COc1cc(CCNCc2ccccc2F)c(OC)cc1C#N was 1130

* * *

# Tested on: 5-HT2AR S159A-mutated receptor
# procedure_text: Bias factor (βarr2 vs miniGαq recruitment), intrinsic relative activity approach, S159A mutated 5-HT2AR
# Assay type: cell-based, human
# condition_notes: 5-HT2A-S159A; relative to serotonin (5-HT); average of three experiments
outcome_measure: β-factor

The reported value for COc1cc(CCNCc2ccccc2F)c(OC)cc1C#N [6c] in terms of β-factor is 0.186

Query NCCc1c[nH]c2ccc(O)cc12 [5-HT, serotonin, reference compound] yields β-factor of 0

Field β-factor (entry COc1cccc(CNCCc2cc(OC)c(Br)cc2OC)c1 [4b] ) reads 0.102

Reported β-factor ( CCN(CC)C(=O)[C@@H]1C=C2c3cccc4[nH]cc(c34)C[C@H]2N(C)C1 [LSD, lysergic acid diethylamide, reference compound] ) = -0.533

* * *

# target_system: 5-HT2AR (Homo sapiens)
# Construct: expressed in transfected cells; host or cells: HEK 293T (transient transfection)
# procedure_text: cell-based
# Format: cell-based
# condition_notes: read-out: β-arr2 EC50 (nM) [CI]
Can you tell me EC50 for the items I'm about to list?
Provide the reading as a plain figure in nM.

The recorded EC50 with 5-HT2AR (Homo sapiens) for COc1cccc(CNCCc2cc(OC)c(Br)cc2OC)c1 was 11.1

Entry COc1cc(CCNCc2cccc(O)c2)c(OC)cc1C#N ; assay system 5-HT2AR (Homo sapiens); EC50 recorded at 84.5

The reported EC50 value, 5-HT2AR (Homo sapiens), for COc1cc(CCNC2COc3ccccc32)c(OC)cc1C#N (racemic) [(±)-6f] reads 108

Result for COc1cc(CCNCc2cccc(O)c2)c(OC)cc1Br , tested on 5-HT2AR (Homo sapiens), EC50: 11.1

* * *

# target_system: 5-HT2AR (Homo sapiens)
# Construct: expressed in transfected cells; host or cells: HEK 293T (transient transfection)
# procedure_text: cell-based
# Assay type: cell-based
# condition_notes: HEK-293T, read-out: β-arr2 Emax (%) [CI]
outcome_measure: Emax (%)
Express the result in % but write the number alone.

What the record says about COc1cc(CCNCc2cccc3c2OCO3)c(OC)cc1C#N [6d] : Emax is 114

Documented Emax of COc1cc(CCNC2CCOc3ccccc32)c(OC)cc1Br (racemic) [(±)-4d] : 121

Value of Emax reported for the compound COc1cc(CCNCc2cccc(O)c2)c(OC)cc1C#N [6e] is 106

Form field Emax, entry COc1cc(CCNC2COc3ccccc32)c(OC)cc1Br (racemic) [(±)-4c] : 96.6

Memo: COc1cc(CCNCc2ccccc2F)c(OC)cc1C#N [6c] , reported Emax: 114

The recorded Emax for entry COc1cc(CCNC2COc3ccccc32)c(OC)cc1C#N (racemic) [(±)-6f] equals 82.9

Recorded values, source paper PMC9511481.
